- target-entity: Proto-oncogene tyrosine-protein kinase Src (Homo sapiens, UniProt P12931)
- Sequence (P12931 2-536 limits assumed): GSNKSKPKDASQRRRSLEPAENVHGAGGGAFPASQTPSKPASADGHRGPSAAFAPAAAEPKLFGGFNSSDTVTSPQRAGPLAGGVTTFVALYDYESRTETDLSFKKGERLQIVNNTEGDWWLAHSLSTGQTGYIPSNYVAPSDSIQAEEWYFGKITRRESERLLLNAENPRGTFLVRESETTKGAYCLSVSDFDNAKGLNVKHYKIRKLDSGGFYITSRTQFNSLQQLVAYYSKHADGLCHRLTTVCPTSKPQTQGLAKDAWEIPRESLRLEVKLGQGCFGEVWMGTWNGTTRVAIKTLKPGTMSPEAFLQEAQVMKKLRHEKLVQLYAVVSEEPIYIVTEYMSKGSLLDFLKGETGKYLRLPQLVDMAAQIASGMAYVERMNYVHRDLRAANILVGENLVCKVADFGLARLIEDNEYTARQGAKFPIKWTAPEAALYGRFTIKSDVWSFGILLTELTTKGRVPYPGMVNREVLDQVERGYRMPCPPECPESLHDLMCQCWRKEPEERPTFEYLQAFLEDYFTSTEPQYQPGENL
value-kind: IC50

Recall the recorded IC50 for `COc1ccc(CN(C)C)c(-c2cc3c(Nc4ccc5[nH]ccc5c4C)c(C#N)cnc3s2)c1` with Proto-oncogene tyrosine-protein kinase Src (Homo sapiens, UniProt P12931) and state it. > 5 µM

---

- target-entity: Tyrosine-protein kinase Lck (Homo sapiens)
- Sequence (P06239 whole entry): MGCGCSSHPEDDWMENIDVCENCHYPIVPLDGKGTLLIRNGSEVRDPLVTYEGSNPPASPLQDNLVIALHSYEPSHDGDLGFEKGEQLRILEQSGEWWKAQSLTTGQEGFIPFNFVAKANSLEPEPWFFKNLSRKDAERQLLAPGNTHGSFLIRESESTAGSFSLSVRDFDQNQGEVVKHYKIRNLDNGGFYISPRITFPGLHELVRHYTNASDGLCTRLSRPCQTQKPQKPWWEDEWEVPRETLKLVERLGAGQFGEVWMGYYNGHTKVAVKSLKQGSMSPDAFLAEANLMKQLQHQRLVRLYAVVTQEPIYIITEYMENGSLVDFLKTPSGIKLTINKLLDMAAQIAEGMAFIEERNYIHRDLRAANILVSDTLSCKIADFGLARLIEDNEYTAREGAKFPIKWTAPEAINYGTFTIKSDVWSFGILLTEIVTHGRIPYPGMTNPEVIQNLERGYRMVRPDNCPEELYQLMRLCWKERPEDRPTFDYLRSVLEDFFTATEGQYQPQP
value-kind: IC50

Quick one: IC50 of `COc1ccc(CN(C)C)cc1-c1cc2c(Nc3ccc4[nH]ccc4c3C)c(C#N)cnc2s1` ? 6 nM

---

- procedure-text: Inhibition of VEGFR
pIC50: −log10 of the molar value.
value-kind: pIC50

Quick one: pIC50 of `COc1ccc(CN(C)C)c(-c2cc3c(Nc4ccc5[nH]ccc5c4C)c(C#N)cnc3s2)c1` ? < 5.30

---

- target-entity: Protein kinase C eta type (Homo sapiens)
- Sequence (P24723 whole entry): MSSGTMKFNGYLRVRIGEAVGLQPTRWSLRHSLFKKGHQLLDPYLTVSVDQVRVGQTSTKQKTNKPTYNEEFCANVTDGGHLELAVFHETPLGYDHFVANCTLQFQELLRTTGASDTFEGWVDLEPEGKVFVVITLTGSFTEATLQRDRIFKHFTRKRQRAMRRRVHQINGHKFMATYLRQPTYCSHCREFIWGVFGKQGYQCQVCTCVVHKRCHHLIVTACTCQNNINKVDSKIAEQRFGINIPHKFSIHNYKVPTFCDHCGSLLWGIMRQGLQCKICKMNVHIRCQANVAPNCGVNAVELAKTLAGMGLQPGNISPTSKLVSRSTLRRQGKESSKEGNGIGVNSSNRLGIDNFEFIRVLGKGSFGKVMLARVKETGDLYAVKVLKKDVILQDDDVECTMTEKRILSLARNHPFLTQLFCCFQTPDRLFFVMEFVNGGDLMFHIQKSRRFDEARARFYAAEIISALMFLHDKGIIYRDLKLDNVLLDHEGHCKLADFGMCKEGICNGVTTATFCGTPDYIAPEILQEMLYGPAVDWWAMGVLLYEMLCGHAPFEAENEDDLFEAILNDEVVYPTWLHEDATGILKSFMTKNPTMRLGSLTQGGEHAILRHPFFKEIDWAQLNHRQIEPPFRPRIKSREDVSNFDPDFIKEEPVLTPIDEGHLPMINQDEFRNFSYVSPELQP
value-kind: pIC50
Expect pIC50 as a plain number equal to -log10 of the molar concentration.

Quick one: pIC50 of `COc1ccc(CN(C)C)c(-c2cc3c(Nc4ccc5[nH]ccc5c4C)c(C#N)cnc3s2)c1` ? 6.44

---

Each entry below carries its measured pIC50, system: Tyrosine-protein kinase Lyn (Homo sapiens).
Sequence (P07948 whole entry): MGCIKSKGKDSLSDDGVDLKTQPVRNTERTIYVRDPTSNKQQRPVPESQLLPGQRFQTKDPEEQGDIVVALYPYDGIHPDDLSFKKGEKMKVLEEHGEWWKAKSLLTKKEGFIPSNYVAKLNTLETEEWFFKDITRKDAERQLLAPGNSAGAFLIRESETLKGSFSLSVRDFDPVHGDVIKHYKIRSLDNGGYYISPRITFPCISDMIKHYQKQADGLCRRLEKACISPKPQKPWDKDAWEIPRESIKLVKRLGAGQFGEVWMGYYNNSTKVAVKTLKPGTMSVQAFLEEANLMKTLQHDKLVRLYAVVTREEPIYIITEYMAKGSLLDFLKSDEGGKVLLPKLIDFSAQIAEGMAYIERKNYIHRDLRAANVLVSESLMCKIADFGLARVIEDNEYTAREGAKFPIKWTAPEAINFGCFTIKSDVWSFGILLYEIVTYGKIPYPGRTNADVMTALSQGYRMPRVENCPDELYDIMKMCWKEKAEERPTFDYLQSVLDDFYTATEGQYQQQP
Expect pIC50 as a plain number equal to -log10 of the molar concentration.

compound-structure-string: COc1ccccc1-c1cc2c(Nc3ccc4[nH]ccc4c3C)c(C#N)cnc2s1
value-kind: pIC50
reported-value: 6.51

compound-structure-string: Cc1c(Nc2c(C#N)cnc3sc(-c4csc(CN(C)C)c4)cc23)ccc2[nH]ccc12
value-kind: pIC50
reported-value: 6.39

compound-structure-string: Cc1c(Nc2c(C#N)cnc3sc(-c4cncc(CN(C)C)c4)cc23)ccc2[nH]ccc12
value-kind: pIC50
reported-value: 5.66

compound-structure-string: COc1ccc(CN(C)C)cc1-c1cc2c(Nc3ccc4[nH]ccc4c3C)c(C#N)cnc2s1
value-kind: pIC50
reported-value: 7.64

Quick one: pIC50 of `CCOc1ccc(CN(C)C)cc1-c1cc2c(Nc3ccc4[nH]ccc4c3C)c(C#N)cnc2s1` ? 7.13

Could you do the same for `Cc1ccc(CN(C)C)cc1-c1cc2c(Nc3ccc4[nH]ccc4c3C)c(C#N)cnc2s1` , please? 6.64

---

- target-entity: Protein kinase C delta type (Homo sapiens)
- Sequence (Q05655 whole entry): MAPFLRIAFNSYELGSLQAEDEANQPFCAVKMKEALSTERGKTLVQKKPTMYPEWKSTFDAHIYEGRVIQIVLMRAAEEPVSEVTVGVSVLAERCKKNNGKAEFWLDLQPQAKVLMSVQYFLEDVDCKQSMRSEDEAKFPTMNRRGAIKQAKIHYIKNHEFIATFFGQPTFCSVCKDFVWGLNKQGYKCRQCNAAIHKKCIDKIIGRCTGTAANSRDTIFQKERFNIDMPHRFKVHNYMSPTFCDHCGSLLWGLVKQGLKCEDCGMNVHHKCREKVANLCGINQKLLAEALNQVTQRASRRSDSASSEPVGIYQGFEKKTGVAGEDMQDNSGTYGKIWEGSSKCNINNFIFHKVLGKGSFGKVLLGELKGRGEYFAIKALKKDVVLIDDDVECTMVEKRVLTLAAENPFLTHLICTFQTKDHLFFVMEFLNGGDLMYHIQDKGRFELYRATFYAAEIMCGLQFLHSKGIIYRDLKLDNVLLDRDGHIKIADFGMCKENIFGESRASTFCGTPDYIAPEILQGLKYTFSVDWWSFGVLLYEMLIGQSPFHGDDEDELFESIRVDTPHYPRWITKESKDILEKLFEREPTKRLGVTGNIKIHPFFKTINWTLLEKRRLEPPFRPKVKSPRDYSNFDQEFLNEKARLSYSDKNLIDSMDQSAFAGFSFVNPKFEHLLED
- procedure-text: Inhibition of human full length PKCdelta
pIC50: −log10 of the molar value.
Classification field: yes = pIC50 at or over 7; no = pIC50 under 7.

Some solved entries appear below for comparison.
compound-structure-string: Cc1c(Nc2c(C#N)cnc3sc(-c4cncc(CN(C)C)c4)cc23)ccc2[nH]ccc12
target-entity: Protein kinase C delta type (Homo sapiens)
assigned-label: no

compound-structure-string: COc1c(CN(C)C)cccc1-c1cc2c(Nc3ccc4[nH]ccc4c3C)c(C#N)cnc2s1
target-entity: Protein kinase C delta type (Homo sapiens)
assigned-label: yes

compound-structure-string: Cc1c(Nc2c(C#N)cnc3sc(-c4csc(CN(C)C)c4)cc23)ccc2[nH]ccc12
target-entity: Protein kinase C delta type (Homo sapiens)
assigned-label: yes

Test whether the compound `Cc1ccc(CN(C)C)cc1-c1cc2c(Nc3ccc4[nH]ccc4c3C)c(C#N)cnc2s1` records pIC50 of 7 or higher. no

Could you do the same for `COc1ccccc1-c1cc2c(Nc3ccc4[nH]ccc4c3C)c(C#N)cnc2s1` , please? no

Could you do the same for `Cc1c(Nc2c(C#N)cnc3sc(-c4ccccc4CN(C)C)cc23)ccc2[nH]ccc12` , please? no

Could you do the same for `COc1ccc(CN(C)C)cc1-c1cc2c(Nc3ccc4[nH]ccc4c3C)c(C#N)cnc2s1` , please? yes
